Where do these numbers come from? They come from ChEMBL document CHEMBL3576849.

biological target: Urotensin-2 receptor (Rattus norvegicus) (UniProt P49684); assay: Agonist activity at urotensin-2 receptor in Sprague-Dawley rat thoracic aortic ring assessed as induction of aortic ring contraction at 10 to 100 uM
Sequence (P49684 whole entry): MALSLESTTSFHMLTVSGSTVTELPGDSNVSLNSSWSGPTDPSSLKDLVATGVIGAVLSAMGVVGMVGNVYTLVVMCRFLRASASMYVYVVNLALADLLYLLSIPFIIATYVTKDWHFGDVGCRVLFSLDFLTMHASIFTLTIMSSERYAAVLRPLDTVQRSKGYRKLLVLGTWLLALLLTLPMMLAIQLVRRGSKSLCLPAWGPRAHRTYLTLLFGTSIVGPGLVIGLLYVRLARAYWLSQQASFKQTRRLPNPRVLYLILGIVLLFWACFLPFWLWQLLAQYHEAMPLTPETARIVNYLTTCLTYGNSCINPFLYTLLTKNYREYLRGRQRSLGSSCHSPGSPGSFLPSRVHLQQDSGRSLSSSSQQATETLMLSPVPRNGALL
The source made the active and inactive calls. The calls are words filed in the database; no cut-off is given here.
endpoint.name: Activity

Recorded Activity, per entry:
>>> observed_value("NCCCC[C@@H]1N=C(c2cccc3ccccc23)c2[nH]c(C(=O)O)cc2N(CCc2ccc(O)cc2)C1=O")
"inactive"
>>> observed_value("NCCC[C@@H]1N=C(c2ccc(-c3ccccc3)cc2)c2[nH]c(C(=O)O)cc2N(CCc2ccc(O)cc2)C1=O")
"inactive"
>>> observed_value("NCCCC[C@@H]1N[C@@H](c2ccc(-c3ccccc3)cc2)c2[nH]c(C(=O)O)cc2N(CCc2ccc(O)cc2)C1=O")
"inactive"
>>> observed_value("NCCCC[C@@H]1N=C(c2ccc3ccccc3c2)c2[nH]c(C(=O)O)cc2N(CCc2ccc(O)cc2)C1=O")
"inactive"
>>> observed_value("NCCCC[C@@H]1N[C@H](c2ccc3ccccc3c2)c2[nH]c(C(=O)O)cc2N(CCc2ccc(O)cc2)C1=O")
"inactive"

Fill in the blank: the reported Activity of NCCC[C@@H]1N[C@@H](c2cccc3ccccc23)c2[nH]c(C(=O)O)cc2N(CCc2ccc(O)cc2)C1=O is ____.
inactive

Fill in the blank: the reported Activity of NCCCC[C@@H]1N[C@H](c2ccc(-c3ccccc3)cc2)c2[nH]c(C(=O)O)cc2N(CCc2ccc(O)cc2)C1=O is ____.
inactive

Fill in the blank: the reported Activity of NCCC[C@@H]1N=C(c2ccc3ccccc3c2)c2[nH]c(C(=O)O)cc2N(CCc2ccc(O)cc2)C1=O is ____.
inactive

Fill in the blank: the reported Activity of NCCCC[C@@H]1N=C(c2ccc(-c3ccccc3)cc2)c2[nH]c(C(=O)O)cc2N(CCc2ccc(O)cc2)C1=O is ____.
inactive
